Attribution: patent US20160083466A1

Study Target: T1, mouse IL-25 expressed with a C-terminal myc-myc-hexahistidine tag (mouse)
T1 construct: also called Mouse IL-25-MMH; mIL-25-MMH
T1 chain: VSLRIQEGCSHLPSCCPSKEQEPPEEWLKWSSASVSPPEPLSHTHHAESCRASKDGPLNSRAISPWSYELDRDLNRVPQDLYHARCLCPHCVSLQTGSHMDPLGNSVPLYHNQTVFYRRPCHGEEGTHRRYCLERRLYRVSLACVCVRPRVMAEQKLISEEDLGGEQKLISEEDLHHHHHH
Assay Explanation: SPR Biacore, antibody captured, 37C;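 further: Real-time sensorgrams of IL-25-MMH binding to purified anti-IL-25 antibodies, rate constants obtained by fitting a 1:1 binding model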
Observed Property: t½ (h)

• H4H10905P (antibody, human IgG4, V domains shown, H4H prefix = human IgG4 Fc) VH: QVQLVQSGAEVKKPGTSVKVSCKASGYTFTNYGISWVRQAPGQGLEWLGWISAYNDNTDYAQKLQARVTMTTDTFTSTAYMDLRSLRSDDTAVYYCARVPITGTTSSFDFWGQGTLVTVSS VL: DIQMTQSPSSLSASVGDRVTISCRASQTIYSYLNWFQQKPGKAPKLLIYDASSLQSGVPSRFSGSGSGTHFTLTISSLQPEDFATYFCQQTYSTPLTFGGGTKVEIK = 1.08
• H4H10876P (antibody, human IgG4, V domains shown, H4H prefix = human IgG4 Fc) VH: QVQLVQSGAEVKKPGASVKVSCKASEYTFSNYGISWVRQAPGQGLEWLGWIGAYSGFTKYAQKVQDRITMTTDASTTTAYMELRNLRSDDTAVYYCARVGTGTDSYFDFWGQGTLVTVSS VL: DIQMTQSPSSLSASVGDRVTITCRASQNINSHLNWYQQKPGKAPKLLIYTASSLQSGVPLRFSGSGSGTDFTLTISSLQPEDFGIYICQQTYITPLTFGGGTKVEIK = 2.15
• H4H10871P (antibody, human IgG4, V domains shown, H4H prefix = human IgG4 Fc) VH: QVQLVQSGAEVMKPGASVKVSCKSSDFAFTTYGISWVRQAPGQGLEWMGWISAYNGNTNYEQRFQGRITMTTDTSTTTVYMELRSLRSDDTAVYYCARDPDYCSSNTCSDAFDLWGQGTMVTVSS VL: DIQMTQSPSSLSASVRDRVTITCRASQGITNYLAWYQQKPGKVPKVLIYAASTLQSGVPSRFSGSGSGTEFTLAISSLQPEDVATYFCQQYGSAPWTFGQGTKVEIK = 2.32
